# Assay Overview: Sirolimus whole blood pharmacokinetics
# Type: in vivo, human
# Condition Label: human, whole blood, oral, 5 mg, AUC∞, sirolimus 5 mg, with ketoconazole, n=6
Measure: AUC(0-inf) (ng·h/mL)
I only need the number, in ng·h/mL, no unit after it.

Request: Item under review: CO[C@H]1C[C@@H]2CC[C@@H](C)[C@@](O)(O2)C(=O)C(=O)N2CCCC[C@H]2C(=O)O[C@H]([C@H](C)C[C@@H]2CC[C@@H](O)[C@H](OC)C2)CC(=O)[C@H](C)/C=C(\C)[C@@H](O)[C@@H](OC)C(=O)[C@H](C)C[C@H](C)/C=C/C=C/C=C/1C . Reported AUC(0-inf)?
Result: 3140

###

# Assay Overview: Sirolimus whole blood pharmacokinetics
# Format: in vivo, human
# Condition Label: human, whole blood, oral, 1 mg, Cmax, sirolimus 1 mg, without ketoconazole, n=6
Measure: Cmax (ng/mL)
I only need the number, in ng/mL, no unit after it.

Request: Item under review: CO[C@H]1C[C@@H]2CC[C@@H](C)[C@@](O)(O2)C(=O)C(=O)N2CCCC[C@H]2C(=O)O[C@H]([C@H](C)C[C@@H]2CC[C@@H](O)[C@H](OC)C2)CC(=O)[C@H](C)/C=C(\C)[C@@H](O)[C@@H](OC)C(=O)[C@H](C)C[C@H](C)/C=C/C=C/C=C/1C . Reported Cmax?
Result: 5.4

###

# Assay Overview: Sirolimus whole blood pharmacokinetics
# Assay type: in vivo, human
# Condition Label: human, whole blood, oral, 16 mg, AUC∞, sirolimus 16 mg, with ketoconazole, n=2
Measure: AUC(0-inf) (ng·h/mL)
I only need the number, in ng·h/mL, no unit after it.

Request: Item under review: CO[C@H]1C[C@@H]2CC[C@@H](C)[C@@](O)(O2)C(=O)C(=O)N2CCCC[C@H]2C(=O)O[C@H]([C@H](C)C[C@@H]2CC[C@@H](O)[C@H](OC)C2)CC(=O)[C@H](C)/C=C(\C)[C@@H](O)[C@@H](OC)C(=O)[C@H](C)C[C@H](C)/C=C/C=C/C=C/1C . Reported AUC(0-inf)?
Result: 5010

###

# Assay Overview: Sirolimus whole blood pharmacokinetics
# Assay type: in vivo, human
# Condition Label: human, whole blood, oral, 4 mg, Cmax, sirolimus 4 mg, without ketoconazole, n=6
Measure: Cmax (ng/mL)
I only need the number, in ng/mL, no unit after it.

Request: Item under review: CO[C@H]1C[C@@H]2CC[C@@H](C)[C@@](O)(O2)C(=O)C(=O)N2CCCC[C@H]2C(=O)O[C@H]([C@H](C)C[C@@H]2CC[C@@H](O)[C@H](OC)C2)CC(=O)[C@H](C)/C=C(\C)[C@@H](O)[C@@H](OC)C(=O)[C@H](C)C[C@H](C)/C=C/C=C/C=C/1C [Sirolimus] . Reported Cmax?
Result: 21.3

###

# Assay Overview: Sirolimus whole blood pharmacokinetics
# Assay type: in vivo, human
# Condition Label: human, whole blood, oral, 8 mg, AUC∞, sirolimus 8 mg, without ketoconazole, n=1
Measure: AUC(0-inf) (ng·h/mL)
I only need the number, in ng·h/mL, no unit after it.

Request: Item under review: CO[C@H]1C[C@@H]2CC[C@@H](C)[C@@](O)(O2)C(=O)C(=O)N2CCCC[C@H]2C(=O)O[C@H]([C@H](C)C[C@@H]2CC[C@@H](O)[C@H](OC)C2)CC(=O)[C@H](C)/C=C(\C)[C@@H](O)[C@@H](OC)C(=O)[C@H](C)C[C@H](C)/C=C/C=C/C=C/1C . Reported AUC(0-inf)?
Result: 420

###

# Assay Overview: Sirolimus whole blood pharmacokinetics
# Format: in vivo, human
# Condition Label: human, whole blood, oral, 4 mg, AUC∞, sirolimus 4 mg, without ketoconazole, n=6
Measure: AUC(0-inf) (ng·h/mL)
I only need the number, in ng·h/mL, no unit after it.

Request: Item under review: CO[C@H]1C[C@@H]2CC[C@@H](C)[C@@](O)(O2)C(=O)C(=O)N2CCCC[C@H]2C(=O)O[C@H]([C@H](C)C[C@@H]2CC[C@@H](O)[C@H](OC)C2)CC(=O)[C@H](C)/C=C(\C)[C@@H](O)[C@@H](OC)C(=O)[C@H](C)C[C@H](C)/C=C/C=C/C=C/1C [Sirolimus] . Reported AUC(0-inf)?
Result: 456

###

# Assay Overview: Sirolimus whole blood pharmacokinetics
# Type: in vivo, human
# Condition Label: human, whole blood, oral, 4 mg, AUC∞, sirolimus 4 mg, with ketoconazole, n=6
Measure: AUC(0-inf) (ng·h/mL)
I only need the number, in ng·h/mL, no unit after it.

Request: Item under review: CO[C@H]1C[C@@H]2CC[C@@H](C)[C@@](O)(O2)C(=O)C(=O)N2CCCC[C@H]2C(=O)O[C@H]([C@H](C)C[C@@H]2CC[C@@H](O)[C@H](OC)C2)CC(=O)[C@H](C)/C=C(\C)[C@@H](O)[C@@H](OC)C(=O)[C@H](C)C[C@H](C)/C=C/C=C/C=C/1C . Reported AUC(0-inf)?
Result: 2900

###

# Assay Overview: Sirolimus whole blood pharmacokinetics
# Assay type: in vivo, human
# Condition Label: human, whole blood, oral, 3 mg, T1/2, sirolimus 3 mg, without ketoconazole, n=6
Measure: half-life (h)
I only need the number, in h, no unit after it.

Request: Item under review: CO[C@H]1C[C@@H]2CC[C@@H](C)[C@@](O)(O2)C(=O)C(=O)N2CCCC[C@H]2C(=O)O[C@H]([C@H](C)C[C@@H]2CC[C@@H](O)[C@H](OC)C2)CC(=O)[C@H](C)/C=C(\C)[C@@H](O)[C@@H](OC)C(=O)[C@H](C)C[C@H](C)/C=C/C=C/C=C/1C [Sirolimus] . Reported half-life?
Result: 35

###

# Assay Overview: Sirolimus whole blood pharmacokinetics
# Type: in vivo, human
# Condition Label: human, whole blood, oral, 3 mg, AUC∞, sirolimus 3 mg, without ketoconazole, n=6
Measure: AUC(0-inf)
Please format your answer as a value with the unit trailing.

Request: Item under review: CO[C@H]1C[C@@H]2CC[C@@H](C)[C@@](O)(O2)C(=O)C(=O)N2CCCC[C@H]2C(=O)O[C@H]([C@H](C)C[C@@H]2CC[C@@H](O)[C@H](OC)C2)CC(=O)[C@H](C)/C=C(\C)[C@@H](O)[C@@H](OC)C(=O)[C@H](C)C[C@H](C)/C=C/C=C/C=C/1C . Reported AUC(0-inf)?
Result: 400 ng·h/mL

###

# Assay Overview: Sirolimus whole blood pharmacokinetics
# Type: in vivo, human
# Condition Label: human, whole blood, oral, 6 mg, Cmax, sirolimus 6 mg, with ketoconazole, n=3
Measure: Cmax (ng/mL)
I only need the number, in ng/mL, no unit after it.

Request: Item under review: CO[C@H]1C[C@@H]2CC[C@@H](C)[C@@](O)(O2)C(=O)C(=O)N2CCCC[C@H]2C(=O)O[C@H]([C@H](C)C[C@@H]2CC[C@@H](O)[C@H](OC)C2)CC(=O)[C@H](C)/C=C(\C)[C@@H](O)[C@@H](OC)C(=O)[C@H](C)C[C@H](C)/C=C/C=C/C=C/1C . Reported Cmax?
Result: 74.6

###

# Assay Overview: Sirolimus whole blood pharmacokinetics
# Type: in vivo, human
# Condition Label: human, whole blood, oral, 2 mg, AUC∞, sirolimus 2 mg, without ketoconazole, n=6
Measure: AUC(0-inf) (ng·h/mL)
I only need the number, in ng·h/mL, no unit after it.

Request: Item under review: CO[C@H]1C[C@@H]2CC[C@@H](C)[C@@](O)(O2)C(=O)C(=O)N2CCCC[C@H]2C(=O)O[C@H]([C@H](C)C[C@@H]2CC[C@@H](O)[C@H](OC)C2)CC(=O)[C@H](C)/C=C(\C)[C@@H](O)[C@@H](OC)C(=O)[C@H](C)C[C@H](C)/C=C/C=C/C=C/1C [Sirolimus] . Reported AUC(0-inf)?
Result: 271

###

# Assay Overview: Sirolimus whole blood pharmacokinetics
# Format: in vivo, human
# Condition Label: human, whole blood, oral, 45 mg, Cmax [SD], sirolimus alone study, 24 hours apart (total 90 mg), N=2, mean
Measure: Cmax (ng/mL)
I only need the number, in ng/mL, no unit after it.

Request: Item under review: CO[C@H]1C[C@@H]2CC[C@@H](C)[C@@](O)(O2)C(=O)C(=O)N2CCCC[C@H]2C(=O)O[C@H]([C@H](C)C[C@@H]2CC[C@@H](O)[C@H](OC)C2)CC(=O)[C@H](C)/C=C(\C)[C@@H](O)[C@@H](OC)C(=O)[C@H](C)C[C@H](C)/C=C/C=C/C=C/1C [Sirolimus] . Reported Cmax?
Result: 42.8

###

# Assay Overview: Sirolimus whole blood pharmacokinetics
# Format: in vivo, human
# Condition Label: human, whole blood, oral, 1 mg, AUC∞, sirolimus 1 mg, with ketoconazole, n=6
Measure: AUC(0-inf)
Please format your answer as a value with the unit trailing.

Request: Item under review: CO[C@H]1C[C@@H]2CC[C@@H](C)[C@@](O)(O2)C(=O)C(=O)N2CCCC[C@H]2C(=O)O[C@H]([C@H](C)C[C@@H]2CC[C@@H](O)[C@H](OC)C2)CC(=O)[C@H](C)/C=C(\C)[C@@H](O)[C@@H](OC)C(=O)[C@H](C)C[C@H](C)/C=C/C=C/C=C/1C . Reported AUC(0-inf)?
Result: 935 ng·h/mL
